quantity: melting point (°C)

Take a look at these entries with their results.
{"molecule": "CC(=O)OC1CCC2(C)C(CCC3C4=C(CCC32)C(C)(C#Cc2ccccc2)CC4)C1 (stereo not given) [10,17-dimethyl-17-(phenylethynyl)gon-13-en-3-yl acetate]", "melting point / °C": 136}
{"molecule": "COc1ccc(C=O)c(OC)c1", "melting point / °C": 72}
{"molecule": "Cc1cc(CCl)c(C)cc1CCl", "melting point / °C": 132}
{"molecule": "O=C(O)c1cc(Br)ccc1Cl", "melting point / °C": 154}
{"molecule": "CN(C)c1ccccc1 [N,N-dimethylaniline]", "melting point / °C": 2}
{"molecule": "CC(N)C(=O)O (stereo not given)", "melting point / °C": 264}

I. O=c1n(CCO)c(=O)n(CCO)c(=O)n1CCO [1,3,5-tris(2-hydroxyethyl)cyanuric acid]
II. Cc1cccc(Br)c1
III. CCCN
IV. CCn1cc(C(=O)O)c(=O)c2ccc(C)nc21
V. OCC(O)COc1ccccc1 (stereo not given)
Ranking field: melting point; order: falling. Arrange the labels as the request states and list them.
IV, I, V, II, III
(IV: 229 °C, I: 138 °C, V: 58 °C, II: -40 °C, III: -83 °C)

1. CC(=O)OC1CCC2(C)C(CCC3C2CCC2(C)C3CCC2(O)CCc2ccccc2)C1 (stereo not given) [17-hydroxy-21-phenylpregnan-3-yl acetate]
2. CCCC(=O)OCC [ethyl_butyrate]
// returns 1 or 2 , whichever has the lower melting point Give the chosen item's label as your response.
2

a. Cc1cc(=O)n(-c2ccccc2)n1C [antipyrine]
b. Cc1ccccc1Cl
c. CC(C)OC(C)C
List by increasing melting point. Return value: ordered labels per request.
c, b, a

----------
quantity: melting point (°C)

{"molecule": "O=C4\\C=C3/[C@]([C@H]2CC[C@]1([C@@H](CC[C@@]1(O)C)[C@@H]2CC3)C)(C)CC4 [methyltestosterone]", "quantity": "melting point", "measuredNumber": 163}

a. O=c1[nH]cc(F)c(=O)[nH]1 [Fluorouracil]
b. N#Cc1ccc(C2CCCc3cncn32)cc1 (stereo not given)
c. CCCCCCCCCCCC(C)O (stereo not given)
Rank the items in ascending order with respect to melting point. Please respond with the labels ordered as the question requires.
c, b, a
(c: 25 °C, b: 117 °C, a: 281 °C)

A. CC[C@H](C)[C@H](NC(=O)OCC1c2ccccc2-c2ccccc21)C(=O)O
B. O=C(Nc1ccccc1)Nc1ccccc1
C. Brc1ccccc1I
// sort entries: melting point, high to low Response format: the labels, sorted as the prompt asks.
B, A, C
(B: 232 °C, A: 147 °C, C: 10 °C)

----------
quantity: melting point (°C)

Study these solved cases before continuing.
{"compound": "C=Cc1cccc(O)c1", "unitAbbreviation": "°C", "measuredNumber": 1}
{"compound": "COc1ccccc1-c1ccccc1", "unitAbbreviation": "°C", "measuredNumber": 30}
{"compound": "c1ccc(-c2cccc(-c3ccccn3)n2)nc1", "unitAbbreviation": "°C", "measuredNumber": 91}

I. O=C(O)c1cccc(OCc2ccccc2)c1
II. CCCCCCCCCCN
Hi, I'm comparing I with II and wondering which one has the bigger number for melting point. Any idea? Answer = label.
I
(I: 134 °C, II: 16 °C)

I. Clc1ccc2ncccc2c1
II. Cc1ccc(S(=O)(=O)OC[C@@H]2OC(C)(C)O[C@H]2COS(=O)(=O)c2ccc(C)cc2)cc1
Between I and II , whose measured melting point reads higher? Write down the label of the entry you select.
II
(II: 90 °C, I: 35 °C)

I. CCOC(=O)/C(=N/Nc1cc(Cl)ccc1Cl)C(=O)C(F)(F)F
II. COC(=O)C1Cc2ccccc2C(=O)O1 (configuration not stated) [methyl 1-oxo-3,4-dihydro-1H-isochromene-3-carboxylate]
Looking only at measured melting point, which entry is lower, I or II ? Answer with the label corresponding to your selection.
II
(II: 90 °C, I: 147 °C)

A. [O-][n+]1ccc2ccccc2c1 [isoquinoline n-oxide]
B. CC(C)(C)C1CCC(=O)CC1
C. O=C\1c3c(O/C(=C/1)c2ccc(O)c(O)c2)cc(O)cc3O
D. O=C1OC(c2ccccc2)=N/C1=C/c1ccc(-c2ccccc2Br)o1
E. OC(C(F)(F)F)C(F)(F)F
Order the items by recorded melting point; the first position goes to the largest value. Please list the labels according to the requested order.
C, D, A, B, E
